Source: patent US20250237662A1

- assay-target: humanized development candidate monoclonal antibody IgG4 (hIgG4)
- assay-comment: SPR (Biacore T200), mAb captured by anti-rabbit mAb on CM5, antigen 80-0 nM, 1:1 fit
Parameter koff: see the listing below.
result-type: koff (s⁻¹)

>>> obs_value("rabbit anti-human IgG monoclonal antibody clone 2C5 (antibody, V domains shown) VH: QEQLVESGGDLVKPGASLTLTCTASGFSFSSGYYMCWVRQAPGKGLEWIACIYGGALTNTYYATWAKGRFTISKTSSTTVTLQMTSLTAADTATYFCARDLGAAGDAYNLWGPGTLVTVSS VL: ASDMTQTPASVSAAVGGTVTIKCQASESIYSGLAWYQQKPGQPPKLLIFDASDLASGVPSRFKGSRSETEYTLTISDLECADAATYYCQCTDRNSITSYAFGGGTEVVVKG")
"1.36e-05"
>>> obs_value("rabbit anti-human IgG monoclonal antibody clone 9E6 (antibody, V domains shown) VH: QSLEESGGDLVKPGASLTLTCKASGFDFSSSYYMCWVRQAPGRLEWIACIYGGGLSNTYYAGWAKGRFTISKTSSTTVTLQMTSLTVADTATYFCARDAGTSGDYLNLWGPGTLVTVSS VL: AVVMTQTASPVSGAVGGTVTINCQASQSISSSYLSWYQQKPGQPPKLLIYGASTLASGVPSRFKGSGSGTQFTLTISGVQCDDAATYYCAYDAYRLSSPDNIFGGGTEVVVKG")
"2.68e-05"
>>> obs_value("rabbit anti-human IgG monoclonal antibody clone 11G5 (antibody, V domains shown) VH: QSLEESGGDLVKPGASLTLTCTASGFSFSSSYYMCWVRQAPGKRLEWIACIYGGGLSNTYYAGWAKGRFTISKTSSTTVTLQMTSLTAADTATYFCARDATSGDYLNLWGPGTLVTVSS VL: AVVMTQTASPVSGAVGGTVTINCQASQSISASALSWYQQKPGQPPKLLIYAASTLESGVPSRFKGSGSGTQFTLTISGVQCDDAATYYCAYDGYRLSSADNIFGGGTEVVVKG")
"5.8e-06"
>>> obs_value("rabbit anti-human IgG monoclonal antibody clone 16F5 (antibody, V domains shown) VH: QQQLEESGGGLVKPGGTLTLTCKASGIDFSNYYYMCWVRQAPGKGLELIACIYTGSSGSTWYATWAKGRFTISKTSSTTVTLQMTSLTAADTATYFCARDRDVGSLYDSLDLWGQGTLVTVSP VL: AYDMTQTPASVEAAVGGTVTINCQASQSINNWLSWYQQKPGQRPKLLIYQASTLASGVSSRFKGSGSGTHFTLTISDLECADAATYYCQQGWSIDDIDNAFGGGTEVVVKG")
"8.09e-05"
